B1: Poly(rC)-binding protein 1, residues 278 to 350; numbered along this chain, Q15365 (parent)
chain: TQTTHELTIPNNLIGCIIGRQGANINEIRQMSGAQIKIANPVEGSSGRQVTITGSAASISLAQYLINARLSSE

# Variants of: B1
# assay.info: abundance fitness (aPCA) (normalised: wild type 0, dead -1); higher = more abundant; growth selection in yeast, the domain comes from the species named
# experimental.parameters: Homo sapiens
measured.parameter: abundance fitness
Output: the number by itself.

>>> print(df.to_string())
   mutation  measured_parameter  numeric_readout
0      E43N   abundance fitness           -0.024
1      R48A   abundance fitness           -0.113
2      Q30M   abundance fitness           -0.137
3      S72P   abundance fitness           -0.562

Lookup: State the recorded abundance fitness for this entry: "A23W"
Found: -0.419

Lookup: Could you share which abundance fitness value was measured for "G15K" ?
Found: -0.083

Lookup: Could you tell me which abundance fitness is on file for "I28H" ?
Found: -0.956

Lookup: Report abundance fitness for "L7K" please.
Found: -0.53
